# credit: the Human Domainome abundance scans (Beltran et al. 2025)

Measured abundance fitness by item
B1: Far upstream element-binding protein 3, residues 75 to 150; numbered along this chain, Q96I24 (parent)
chain: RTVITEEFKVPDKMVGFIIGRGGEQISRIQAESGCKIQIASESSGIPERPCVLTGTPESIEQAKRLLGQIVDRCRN

# Variants of: B1
# ASSAY_COMMENT: abundance fitness (aPCA) (normalised: wild type 0, dead -1); higher = more abundant; growth selection in yeast, the domain comes from the species named
# CONDITIONS: Homo sapiens

// known answers, use as guide
INPUT: Give its abundance fitness value. Item: K9Y
OUTPUT: -0.114

INPUT: Give its abundance fitness value. Item: I39K
OUTPUT: -0.614

INPUT: Give its abundance fitness value. Item: R21A
OUTPUT: 0.005

INPUT: Give its abundance fitness value. Item: E32P
OUTPUT: -0.95

INPUT: Give its abundance fitness value. Item: I29R
OUTPUT: -0.856

INPUT: Give its abundance fitness value. Item: I37Q
OUTPUT: -0.665

INPUT: Give its abundance fitness value. Item: P50V
OUTPUT: -0.031

INPUT: Give its abundance fitness value. Item: E7D
OUTPUT: -0.02

INPUT: Give its abundance fitness value. Item: A31P
OUTPUT: -0.774

INPUT: Give its abundance fitness value. Item: G16V
OUTPUT: -0.172

More entries:
INPUT: Give its abundance fitness value. Item: Q69I
OUTPUT: 0.02

INPUT: Give its abundance fitness value. Item: R73L
OUTPUT: -0.104
